assay: Agonist activity at dog nicotinic acid receptor by [35S]GTPgammaS binding assay; type: functional, Canis lupus familiaris

COMPOUND STRUCTURE	EC50 [µM]
CC(C)(Cc1nc(-c2ccc(O)cn2)no1)C(=O)NC1=C(C(=O)O)CCCC1	1.3

* * *

species on record: Canis lupus familiaris; test: Agonist activity at dog nicotinic acid receptor by [35S]GTPgammaS binding assay; assay type: functional
Active and inactive are the calls of the source. The rule behind the calls is not given here.
MEASUREMENT NAME: Activity

COMPOUND	RECORDED RESULT
CC(Cc1nc(-c2ccc(O)cn2)no1)C(=O)NC1=C(C(=O)O)CCCC1 (single isomer, unassigned)	Active
O=C(CCc1nc(-c2ccc(O)cn2)no1)NC1=C(C(=O)O)CCCC1	Active
CC(Cc1nc(-c2ccc(O)cn2)no1)C(=O)NC1=C(C(=O)O)CCCC1 (single isomer, unassigned; enantiomer B)	Active
O=C(CCc1nc(-c2ccc(O)cn2)no1)Nc1ccccc1C(=O)O	Active
